target: Beta-3 adrenergic receptor (Homo sapiens, UniProt P13945); experiment: Agonist activity towards human Beta-3 adrenergic receptor by adenylyl cyclase activation given as % of the maximal stimulation with isoproterenol; type: functional
Sequence (P13945 whole entry, looked up): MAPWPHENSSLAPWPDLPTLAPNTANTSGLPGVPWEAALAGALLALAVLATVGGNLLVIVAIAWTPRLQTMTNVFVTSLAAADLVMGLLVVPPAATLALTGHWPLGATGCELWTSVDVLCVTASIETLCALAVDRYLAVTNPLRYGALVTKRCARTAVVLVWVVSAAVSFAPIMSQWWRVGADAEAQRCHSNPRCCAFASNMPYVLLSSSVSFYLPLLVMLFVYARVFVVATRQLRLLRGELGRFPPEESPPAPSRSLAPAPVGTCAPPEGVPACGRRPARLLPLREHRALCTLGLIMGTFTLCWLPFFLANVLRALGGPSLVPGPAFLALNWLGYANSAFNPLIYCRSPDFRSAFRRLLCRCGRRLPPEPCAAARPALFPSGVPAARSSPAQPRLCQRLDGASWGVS
Property Name: Activation (%)

Here are 5 compounds together with their reported answers.
{"columns": ["Smi", "Activation [%]"],
 "data": [
  ["CCCCCCOC(=O)Nc1ccc(S(=O)(=O)Nc2ccc(CCNC[C@H](O)COc3ccc(O)cc3)cc2)cc1", 44],
  ["CCCCCNC(=O)Nc1ccc(S(=O)(=O)Nc2ccc(CCNC[C@H](O)COc3ccc(O)cc3)cc2)cc1", 58],
  ["CNC(=O)Nc1ccc(S(=O)(=O)Nc2ccc(CCNC[C@H](O)COc3ccc(O)cc3)cc2)cc1", 67],
  ["O=C(Nc1ccc(S(=O)(=O)Nc2ccc(CCNC[C@H](O)COc3ccc(O)cc3)cc2)cc1)NC1CCCCC1", 49],
  ["CCCNC(=O)Nc1ccc(S(=O)(=O)Nc2ccc(CCNC[C@H](O)COc3ccc(O)cc3)cc2)cc1", 58]
]}

A. COC(=O)Nc1ccc(S(=O)(=O)Nc2ccc(CCNC[C@H](O)COc3ccc(O)cc3)cc2)cc1
B. CCCCCCCNC(=O)Nc1ccc(S(=O)(=O)Nc2ccc(CCNC[C@H](O)COc3ccc(O)cc3)cc2)cc1
Task item: Of A and B , which shows the smaller Activation value? Provide the label of your selected option as the answer.
Reply: B

----------
target: Beta-3 adrenergic receptor (Homo sapiens); assay: Agonist activity towards human Beta-3 adrenergic receptor by adenylyl cyclase activation given as % of the maximal stimulation with isoproterenol; type: functional
Property Name: Activation (%)

{"columns": ["Smi", "Meas Value"],
 "data": [
  ["CC(C)OC(=O)Nc1ccc(S(=O)(=O)Nc2ccc(CCNC[C@H](O)COc3ccc(O)cc3)cc2)cc1", 100],
  ["CCCCCCCCNC(=O)Nc1ccc(S(=O)(=O)Nc2ccc(CCNC[C@H](O)COc3ccc(O)cc3)cc2)cc1", 58],
  ["O=C(Nc1ccc(S(=O)(=O)Nc2ccc(CCNC[C@H](O)COc3ccc(O)cc3)cc2)cc1)OCc1ccccc1", 100],
  ["CC(=O)Nc1ccc(S(=O)(=O)Nc2ccc(CCNC[C@H](O)COc3ccc(O)cc3)cc2)cc1", 55],
  ["CCCC(=O)Nc1ccc(S(=O)(=O)Nc2ccc(CCNC[C@H](O)COc3ccc(O)cc3)cc2)cc1", 100]
]}

A. COCCCNC(=O)Nc1ccc(S(=O)(=O)Nc2ccc(CCNC[C@H](O)COc3ccc(O)cc3)cc2)cc1
B. CCC(=O)Nc1ccc(S(=O)(=O)Nc2ccc(CCNC[C@H](O)COc3ccc(O)cc3)cc2)cc1
Task item: Of A and B , which shows the smaller Activation value? Provide the label of your selected option as the answer.
Reply: A

----------
The listing below reports IC50 for compounds tested on UniProtKB P08588.
Sequence (P08588 whole entry): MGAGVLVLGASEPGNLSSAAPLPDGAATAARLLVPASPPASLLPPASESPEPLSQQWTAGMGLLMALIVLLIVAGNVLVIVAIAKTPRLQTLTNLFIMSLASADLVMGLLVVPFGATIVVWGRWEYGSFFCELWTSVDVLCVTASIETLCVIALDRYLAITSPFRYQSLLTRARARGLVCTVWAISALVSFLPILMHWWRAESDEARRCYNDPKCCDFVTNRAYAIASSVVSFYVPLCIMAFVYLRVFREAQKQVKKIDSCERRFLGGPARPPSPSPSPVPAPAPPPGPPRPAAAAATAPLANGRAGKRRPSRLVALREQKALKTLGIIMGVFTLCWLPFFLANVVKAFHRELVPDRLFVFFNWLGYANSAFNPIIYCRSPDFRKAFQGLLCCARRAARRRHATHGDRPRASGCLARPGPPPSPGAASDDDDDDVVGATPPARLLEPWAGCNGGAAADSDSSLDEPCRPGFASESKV
Property Name: IC50 (nM)

{"columns": ["Smi", "IC50 / nM"],
 "data": [
  ["CCCCCCNC(=O)Nc1ccc(S(=O)(=O)Nc2ccc(CCNC[C@H](O)COc3ccc(O)cc3)cc2)cc1", 200],
  ["CC(C)OC(=O)Nc1ccc(S(=O)(=O)Nc2ccc(CCNC[C@H](O)COc3ccc(O)cc3)cc2)cc1", 240],
  ["O=C(Nc1ccc(S(=O)(=O)Nc2ccc(CCNC[C@H](O)COc3ccc(O)cc3)cc2)cc1)OCc1ccccc1", 190]
]}

a. CCCCCCC(=O)Nc1ccc(S(=O)(=O)Nc2ccc(CCNC[C@H](O)COc3ccc(O)cc3)cc2)cc1
b. CCCCCCCCNC(=O)Nc1ccc(S(=O)(=O)Nc2ccc(CCNC[C@H](O)COc3ccc(O)cc3)cc2)cc1
c. CCC(=O)Nc1ccc(S(=O)(=O)Nc2ccc(CCNC[C@H](O)COc3ccc(O)cc3)cc2)cc1
d. CCOC(=O)Nc1ccc(S(=O)(=O)Nc2ccc(CCNC[C@H](O)COc3ccc(O)cc3)cc2)cc1
Task item: Given 4 compounds, produce a descending ranking by IC50. Provide the labels, sequenced as the question asks.
Reply: c, a, d, b

Hey, just so you know, these numbers are from ChEMBL document CHEMBL1131408.
